Assay: MTD experiment, dose gradient by gavage
Type: in vivo
Settings: both sexes, CR, mouse, in vivo, po, CR mice, by gavage; read-out: maximum tolerance (MTD)
Method: Mice are commonly used rodents to evaluate the toxicity of a test sample and are also an important part of early preclinical safety evaluation. In this experiment, the toxicity of compound 50561 was tested by administering a dose gradient thereof to the mice by gavage and observing its toxicity. This experiment was designed such that for each dose centration, 10 mice were tested, including half males and half females. […]
Test Readout: MTD at 14 days

MTD at 14 days reported for this compound "O=C1C=C(OCc2ccc(F)cc2)[C@H](Cc2ccccc2)N1" : < 500 mg/kg

---

assay: Pharmacokinetic evaluation, plasma and brain concentrations; assay type: in vivo, ICR mice; conditions: male, ICR, mouse, brain; IV 1 mg/kg, 0.083 hr, G1-3; read-out: Brain tissue concentration
Test Readout: concentration at 0.083 h (ng/g)
State the answer as a number, implicitly in ng/g.

concentration at 0.083 h reported for this compound "O=C1C=C(OCc2ccc(F)cc2)[C@H](Cc2ccccc2)N1" : 977
